Where do these numbers come from? They come from patent US11214803B2.

System: Yap1 mRNA
Assay: Dose-dependent inhibition of human Yap1 in SNU-449 cells (Example 9, RTS36584)
Type: cell-based
Details: 125.0 nM, free uptake, approximately 48 hours
Strand notation (5' to 3'): a small letter for the sugar, then the base; units joined by * are phosphorothioate-linked, units joined directly phosphodiester-linked; [ ] holds rarer units or linkages, { } end groups; capitals alone tell only the bases. e = 2'-O-(2-methoxyethyl) (MOE); k = constrained ethyl (cEt); [5mC] = 5-methylcytosine; d = 2'-deoxy (DNA); m = 2'-O-methyl
For each record, write down the corresponding % UTC (Yap1 mRNA).
I'd appreciate it if you included the unit after the number.

Examples from the recorded data:
% UTC (Yap1 mRNA) recorded for this substance, 1198832 (kG*k[5mC]*dA*d[5mC]*dT*dT*dT*dT*dA*d[5mC]*dA*kT*eT*kA*eG*kG; antisense) [compound 1198832] , is 53 % UTC

% UTC (Yap1 mRNA) recorded for this substance, 1200862 (kT*kT*kT*dA*dA*mA*dG*dT*dG*dT*dA*dT*dG*kT*k[5mC]*kA; antisense) [compound 1200862] , is 64 % UTC

Further cases:
% UTC (Yap1 mRNA) recorded for this substance, 1200789 (G_{ks}G_{ks}A_{ks}A_{ds}A_{ds}U_{ys}T_{ds}G_{ds}T_{ds}^{m}C_{ds}T_{ds}^{m}C_{ds}A_{ds}T_{ks}G_{ks}^{m}C_{k}; as printed in the source, key not given here) [compound 1200789] , is 32 % UTC

* * *

Test: Cynomolgus monkey tolerability, coagulation (Example 34)
Type: in vivo
Conditions: cynomolgus monkeys, 35 mg/kg subcutaneously, day 44
observed-property: PT (s)
Numbers only, in s.

PT recorded for this substance, 1198440 (AAGTGTATGTCAGAAG; cEt, 2'-MOE, 5-methylcytosine, phosphorothioate modifications, further chemistry not given here) [compound 1198440] , is 10

PT recorded for this substance, 1198831 (CACTTTTACATTAGGA; chemically modified gapmer, further chemistry not given here) [compound 1198831] , is 10

Further cases:
PT recorded for this substance, 1198605 (GTAATATTGCAATCTG; modified gapmer, further chemistry not given here) [compound 1198605] , is 9

* * *

For each record, write down the corresponding YAP1 (% UTC).
System: Yap1 mRNA
Assay: Antisense inhibition of human Yap1 in A-431 cells by cEt gapmers, single dose (Example 2, RTS4814)
Format: cell-based
Conditions: Table 20; Yap1 mRNA, percent of untreated control; 3-10-3 cEt gapmers targeting SEQ ID NO.: 1 and 2
Description: Modified oligonucleotides were designed to target a Yap1 nucleic acid and were tested for their effect on Yap1 mRNA level in vitro. The modified oligonucleotides were tested in a series of experiments that had similar culture conditions. […] After a treatment period of approximately 48 hours, RNA was isolated from the cells and Yap1 mRNA levels were measured by quantitative real-time RTPCR. […] Yap1 mRNA levels were normalized to total RNA content, as measured by RIBOGREEN®. […]
Strand notation (5' to 3'): a small letter for the sugar, then the base; units joined by * are phosphorothioate-linked, units joined directly phosphodiester-linked; [ ] holds rarer units or linkages, { } end groups; capitals alone tell only the bases. k = constrained ethyl (cEt); [5mC] = 5-methylcytosine; d = 2'-deoxy (DNA)
I'd appreciate it if you included the unit after the number.

Examples from the recorded data:
Bench note, Yap1 mRNA: entry 1074534 (antisense kT*kA*kA*dT*dA*dG*d[5mC]*dT*d[5mC]*dT*dT*dT*d[5mC]*kT*kA*kG) [Compound 1074534] , its YAP1 (% UTC) = 88 % UTC

Bench note, Yap1 mRNA: entry 1076134 (kG*kA*kT*dT*dA*dG*dA*dG*dT*dT*dG*dG*dG*k[5mC]*kA*kT; antisense) [Compound 1076134] , its YAP1 (% UTC) = 10 % UTC

Further cases:
Bench note, Yap1 mRNA: entry 1076102 (k[5mC]*kT*kT*dA*dA*d[5mC]*dA*dA*dA*dT*d[5mC]*dA*dG*k[5mC]*k[5mC]*k[5mC]; antisense) [Compound 1076102] , its YAP1 (% UTC) = 32 % UTC

* * *

For each record, write down the corresponding Yap1 mRNA, % UTC.
System: Yap1 mRNA
Experiment: Dose-dependent inhibition of human Yap1 in A-431 cells (Example 7, 10,000 cells per well, RTS36584)
Assay type: cell-based
Conditions: Table 60, 4000.00 nM, free uptake, A-431 cells 10,000 cells per well, 48 hours
Strand notation (5' to 3'): a small letter for the sugar, then the base; units joined by * are phosphorothioate-linked, units joined directly phosphodiester-linked; [ ] holds rarer units or linkages, { } end groups; capitals alone tell only the bases. k = constrained ethyl (cEt); [5mC] = 5-methylcytosine; d = 2'-deoxy (DNA)

Examples from the recorded data:
Yap1 mRNA, % UTC recorded for this substance, 958543 (kA*k[5mC]*k[5mC]*dT*dT*dA*dT*dA*dG*dT*dA*dT*dT*k[5mC]*kT*kA; antisense) [compound 958543] , is 18 % UTC

Yap1 mRNA, % UTC recorded for this substance, 958558 (kT*kT*k[5mC]*dA*d[5mC]*dA*dA*d[5mC]*d[5mC]*dA*dA*d[5mC]*dT*kA*kT*kT; antisense) [compound 958558] , is 35 % UTC

Yap1 mRNA, % UTC recorded for this substance, 715483 (k[5mC]*kT*k[5mC]*dT*dT*dT*dG*dG*dA*dA*dA*d[5mC]*d[5mC]*kA*kT*kT) [compound 715483] , is 3 % UTC

Yap1 mRNA, % UTC recorded for this substance, 958568 (kT*kA*kT*dG*dA*dG*dT*dG*dA*dT*d[5mC]*dA*dA*k[5mC]*k[5mC]*kT; antisense) [compound 958568] , is 21 % UTC

Yap1 mRNA, % UTC recorded for this substance, 958593 (kG*kG*kT*d[5mC]*dA*dG*dT*dA*d[5mC]*dA*dG*dA*dG*kG*kG*k[5mC]; antisense) [compound 958593] , is 15 % UTC

Could you tell me Yap1 mRNA, % UTC for each of these substances? They are listed below.
1. 958523 (kT*kT*k[5mC]*d[5mC]*dA*dA*dT*d[5mC]*dG*dA*dG*dA*d[5mC]*kT*kT*kA; antisense) [compound 958523]
2. 958658 (kA*k[5mC]*kA*dG*dT*dA*dT*dA*dA*dT*dA*dT*d[5mC]*k[5mC]*kT*kA; antisense) [compound 958658]

12 % UTC
29 % UTC

Could you tell me Yap1 mRNA, % UTC for each of these substances? They are listed below.
1. 958718 (kG*kA*kA*d[5mC]*dA*d[5mC]*dT*dA*dT*dA*dG*d[5mC]*dT*kT*kG*kG; antisense) [compound 958718]
2. 958538 (kA*kT*k[5mC]*d[5mC]*dA*dG*dG*dG*dT*d[5mC]*dA*dA*dT*kT*kT*kT; antisense) [compound 958538]

1. 24 % UTC
2. 30 % UTC

Could you tell me Yap1 mRNA, % UTC for each of these substances? They are listed below.
1. 958578 (k[5mC]*kT*kT*dA*dA*dT*d[5mC]*dT*dG*dT*dG*dG*d[5mC]*kT*kA*k[5mC]; antisense) [compound 958578]
2. 958813 (kT*kT*kA*d[5mC]*dA*dG*dA*dG*dA*dG*dA*dT*dT*k[5mC]*kA*kT; antisense) [compound 958813]
3. 958588 (kG*kT*kG*dT*dA*d[5mC]*dT*dT*dA*dG*dG*dT*dG*kA*k[5mC]*kT; antisense) [compound 958588]
4. 958648 (kG*kA*kA*dT*dA*d[5mC]*dT*dG*dA*dG*dT*d[5mC]*dA*kG*kG*kA; antisense) [compound 958648]

1. 10 % UTC
2. 29 % UTC
3. 27 % UTC
4. 24 % UTC

* * *

Tested on: Yap1 mRNA
Assay: Antisense inhibition of human Yap1 in A-431 cells by cEt gapmers, single dose (Example 4, RTS4814)
Assay type: cell-based
Details: Table 17; A-431 cells, 5,000 cells per well, free uptake, 2,000 nM, approximately 48 hours; RTS4814; normalized to RIBOGREEN; Yap1 mRNA relative to untreated control cells
Strand notation (5' to 3'): a small letter for the sugar, then the base; units joined by * are phosphorothioate-linked, units joined directly phosphodiester-linked; [ ] holds rarer units or linkages, { } end groups; capitals alone tell only the bases. k = constrained ethyl (cEt); [5mC] = 5-methylcytosine; d = 2'-deoxy (DNA)
Class Criterion met: YAP1 (% UTC) at least 70 % UTC. Class Criterion not met: YAP1 (% UTC) below 70 % UTC.

Observe how each entry below is paired with its result.
Hi team, for 1075523 (kA*kA*kT*dT*dA*dA*dG*dG*dG*d[5mC]*d[5mC]*d[5mC]*dA*k[5mC]*kA*kA; antisense) [Compound 1075523] , is the recorded YAP1 (% UTC) at or above 70 % UTC? Criterion met

Hi team, for 1075427 (antisense kT*kA*kT*dA*dA*dG*dG*d[5mC]*dA*dT*d[5mC]*dT*dT*kG*kG*kA) [Compound 1075427] , is the recorded YAP1 (% UTC) at or above 70 % UTC? Criterion not met

Hi team, for 1076547 (antisense kG*kA*k[5mC]*d[5mC]*dA*dA*d[5mC]*d[5mC]*dT*d[5mC]*d[5mC]*d[5mC]*dT*k[5mC]*kA*kG) [Compound 1076547] , is the recorded YAP1 (% UTC) at or above 70 % UTC? Criterion met

Further cases:
Hi team, for 1076067 (kG*k[5mC]*kA*dT*dA*dT*dA*dA*dG*dA*dT*dG*dT*kT*kT*kG; antisense) [Compound 1076067] , is the recorded YAP1 (% UTC) at or above 70 % UTC? Criterion not met

Hi team, for 1075075 (antisense kA*kA*kT*dT*dT*dT*dA*dT*dA*dA*dG*d[5mC]*d[5mC]*k[5mC]*kA*k[5mC]) [Compound 1075075] , is the recorded YAP1 (% UTC) at or above 70 % UTC? Criterion not met
